ASSAY COMMENT: Lipophilicity, LogD of radiolabeled ligands in PBS (pH 7.4) / n-octanol
Type: physicochemical
DETAILS: radiolabeled ligand
PROPERTY: LogD

| MOLECULE | TEST VALUE |
| --- | --- |
| CC1(C)C(=CC=C2CCCC(C=CC3=[N+](CCCCCC(=O)NCCCCC(NC(=O)CN4CCN(CC(=O)O)CCN(CC(=O)O)CCN(CC(=O)O)CC4)C(=O)NCCCCC(NC(=O)C(CCC(=O)O)NC(=O)c4cccnc4)C(=O)NCc4ccc(C(=O)NC(Cc5ccc6ccccc6c5)C(=O)NCCCCC(NC(=O)NC(CCC(=O)O)C(=O)O)C(=O)O)cc4)c4ccc(S(=O)(=O)O)cc4C3(C)C)=C2Oc2ccc(S(=O)(=O)O)cc2)N(CCCCS(=O)(=O)O)c2ccc(S(=O)(=O)O)cc21 (stereo not shown) | −4.4 +/− 0.01 |

The recorded LogD for CC1(C)C(/C=C/C2=C(Oc3ccc(S(=O)(=O)O)cc3)C(=C/C=C3/N(CCCCS(=O)(=O)O)c4ccc(S(=O)(=O)O)cc4C3(C)C)/CCC2)=[N+](CCCCCC(=O)NCCC(=O)N2Cc3ccccc3-c3c(cnn3CCCCC(NC(=O)CN3CCN(CC(=O)O)CCN(CC(=O)O)CCN(CC(=O)O)CC3)C(=O)NCCCC[C@H](NC(=O)[C@H](CCC(=O)O)NC(=O)c3cccnc3)C(=O)NCc3ccc(C(=O)N[C@@H](Cc4ccc5ccccc5c4)C(=O)NCCCC[C@H](NC(=O)N[C@@H](CCC(=O)O)C(=O)O)C(=O)O)cc3)-c3ccccc32)c2ccc(S(=O)(=O)O)cc21 (stereo partly shown) is −3.2 +/− 0.16

Just so you know, measured LogD for CC(=O)SCC(=O)NCC(=O)NCC(=O)NCC(=O)NC(CCCCNC(=O)CCCCC[N+]1=C(C=CC2=C(Oc3ccc(S(=O)(=O)O)cc3)C(=CC=C3N(CCCCS(=O)(=O)O)c4ccc(S(=O)(=O)O)cc4C3(C)C)CCC2)C(C)(C)c2cc(S(=O)(=O)O)ccc21)C(=O)NCCCCC(NC(=O)C(CCC(=O)O)NC(=O)c1cccnc1)C(=O)NCc1ccc(C(=O)NC(Cc2ccc3ccccc3c2)C(=O)NCCCCC(NC(=O)NC(CCC(=O)O)C(=O)O)C(=O)O)cc1 (stereo not shown) came out at −3.5 +/− 0.01

Recorded result, O=C(O)CC[C@H](NC(=O)N[C@@H](CCCCNC(=O)[C@H](Cc1ccc2ccccc2c1)NC(=O)[C@H]1CC[C@H](CNC(=O)CN2CCN(CC(=O)O)CCN(CC(=O)O)CCN(CC(=O)O)CC2)CC1)C(=O)O)C(=O)O [PSMA-617, reference compound] , LogD: −4.1 +/− 0.01

----------
TEST TARGET: PSMA (LS174T-PSMA cells) (Homo sapiens, UniProt Q04609)
Construct: expressed in transfected cells
Sequence (Q04609 whole entry): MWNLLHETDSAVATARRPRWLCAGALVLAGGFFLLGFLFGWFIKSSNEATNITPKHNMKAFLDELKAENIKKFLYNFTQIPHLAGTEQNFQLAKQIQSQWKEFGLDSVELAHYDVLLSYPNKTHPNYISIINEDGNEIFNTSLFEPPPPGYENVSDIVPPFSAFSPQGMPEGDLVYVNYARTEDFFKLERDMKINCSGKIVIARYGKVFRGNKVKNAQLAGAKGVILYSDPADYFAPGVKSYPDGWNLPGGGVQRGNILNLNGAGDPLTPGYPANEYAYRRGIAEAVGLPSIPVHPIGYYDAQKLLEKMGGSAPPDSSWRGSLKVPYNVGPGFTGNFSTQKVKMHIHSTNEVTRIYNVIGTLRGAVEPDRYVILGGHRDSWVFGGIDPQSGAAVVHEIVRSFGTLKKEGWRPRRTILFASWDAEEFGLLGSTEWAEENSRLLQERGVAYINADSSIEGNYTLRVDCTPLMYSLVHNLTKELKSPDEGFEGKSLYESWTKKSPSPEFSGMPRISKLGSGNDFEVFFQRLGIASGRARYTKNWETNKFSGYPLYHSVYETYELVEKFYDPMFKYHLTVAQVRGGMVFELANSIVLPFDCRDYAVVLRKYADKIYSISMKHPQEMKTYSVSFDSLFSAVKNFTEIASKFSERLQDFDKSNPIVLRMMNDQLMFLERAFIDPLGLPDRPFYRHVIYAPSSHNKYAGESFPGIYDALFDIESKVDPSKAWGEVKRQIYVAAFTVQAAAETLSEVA
ASSAY COMMENT: Alternative internalization assay in LS174T-PSMA cells
Type: cell-based
DETAILS: 2 h at 37° C.
PROPERTY: Internalization Ratio (%)

Use these answered entries as a reference point.
| MOLECULE | PROPERTY | TEST VALUE |
| --- | --- | --- |
| CC1(C)C(=CC=C2CCCC(C=CC3=[N+](CCCCCC(=O)NCCCCC(NC(=O)CN4CCN(CC(=O)O)CCN(CC(=O)O)CCN(CC(=O)O)CC4)C(=O)NCCCCC(NC(=O)C(CCC(=O)O)NC(=O)c4cccnc4)C(=O)NCc4ccc(C(=O)NC(Cc5ccc6ccccc6c5)C(=O)NCCCCC(NC(=O)NC(CCC(=O)O)C(=O)O)C(=O)O)cc4)c4ccc(S(=O)(=O)O)cc4C3(C)C)=C2Oc2ccc(S(=O)(=O)O)cc2)N(CCCCS(=O)(=O)O)c2ccc(S(=O)(=O)O)cc21 (stereo not shown) | Internalization Ratio (%) | 74.1 +/− 20.3% |
| CC1(C)C(/C=C/C2=C(Oc3ccc(S(=O)(=O)O)cc3)C(=C/C=C3/N(CCCCS(=O)(=O)O)c4ccc(S(=O)(=O)O)cc4C3(C)C)/CCC2)=[N+](CCCCCC(=O)NCCC(=O)N2Cc3ccccc3-c3c(cnn3CCCCC(NC(=O)CN3CCN(CC(=O)O)CCN(CC(=O)O)CCN(CC(=O)O)CC3)C(=O)NCCCC[C@H](NC(=O)[C@H](CCC(=O)O)NC(=O)c3cccnc3)C(=O)NCc3ccc(C(=O)N[C@@H](Cc4ccc5ccccc5c4)C(=O)NCCCC[C@H](NC(=O)N[C@@H](CCC(=O)O)C(=O)O)C(=O)O)cc3)-c3ccccc32)c2ccc(S(=O)(=O)O)cc21 (stereo partly shown) | Internalization Ratio (%) | 80.6 +/− 11.6% |
| O=C(O)CC[C@H](NC(=O)N[C@@H](CCCCNC(=O)[C@H](Cc1ccc2ccccc2c1)NC(=O)[C@H]1CC[C@H](CNC(=O)CN2CCN(CC(=O)O)CCN(CC(=O)O)CCN(CC(=O)O)CC2)CC1)C(=O)O)C(=O)O [PSMA-617, reference compound] | Internalization Ratio (%) | 48.4 +/− 12.4% |

Let us move to another entry and its Internalization Ratio (%).
Considering CC(=O)SCC(=O)NCC(=O)NCC(=O)NCC(=O)NC(CCCCNC(=O)CCCCC[N+]1=C(C=CC2=C(Oc3ccc(S(=O)(=O)O)cc3)C(=CC=C3N(CCCCS(=O)(=O)O)c4ccc(S(=O)(=O)O)cc4C3(C)C)CCC2)C(C)(C)c2cc(S(=O)(=O)O)ccc21)C(=O)NCCCCC(NC(=O)C(CCC(=O)O)NC(=O)c1cccnc1)C(=O)NCc1ccc(C(=O)NC(Cc2ccc3ccccc3c2)C(=O)NCCCCC(NC(=O)NC(CCC(=O)O)C(=O)O)C(=O)O)cc1 (stereo not shown) , its Internalization Ratio (%) with PSMA (LS174T-PSMA cells) (Homo sapiens, UniProt Q04609) was recorded as 61.0 +/− 12.8%
